- assayed system: Escherichia coli LpxC enzyme (Escherichia coli, UniProt P0A725)
- Construct: made in house; host or cells: Escherichia coli
- Sequence (P0A725 whole entry): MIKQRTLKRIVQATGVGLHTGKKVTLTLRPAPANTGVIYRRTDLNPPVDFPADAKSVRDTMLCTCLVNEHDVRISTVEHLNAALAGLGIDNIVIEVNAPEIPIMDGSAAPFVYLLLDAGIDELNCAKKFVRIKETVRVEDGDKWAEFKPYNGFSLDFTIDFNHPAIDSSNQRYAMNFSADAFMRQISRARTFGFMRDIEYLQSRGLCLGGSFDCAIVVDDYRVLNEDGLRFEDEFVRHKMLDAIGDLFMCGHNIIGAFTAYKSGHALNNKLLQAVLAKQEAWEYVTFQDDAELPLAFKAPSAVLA
- experiment: Inhibitory activity on Escherichia coli LpxC enzyme (LCMS method)
- Assay type: biochemical
- cond: LC-MS/MS detection; 3.1 nmol/L enzyme, 20 μmol/L substrate, pH 6.5, 120 min; read-out: IC50 (inhibitory activity on Escherichia coli LpxC enzyme, LCMS method)
result type: IC50

*Q* Can you look up the measured IC50 of C[C@H](O)c1nccn1Cc1cc(-c2ccc(C#CC3CC(N)(C#N)C3)cc2)on1 (stereo partly drawn) for me?
*A* < 37 nM

*Q* For the molecule C[C@H](O)c1nccn1Cc1cc(-c2ccc(C#C[C@@H]3[C@H]4CN(C(=O)CCN)C[C@@H]34)cc2)on1 , what IC50 is on record?
*A* < 37 nM

*Q* What value of IC50 has been reported for the following molecule? C[C@H](O)c1nccn1[C@H](CN)c1cc(-c2ccc(C#C[C@H]3C[C@H](O)C3)cc2)on1
*A* < 37 nM

*Q* Suppose we examine the molecule C[C@H](O)c1nccn1Cc1cc(-c2ccc(C#CC(C)(C)N)cc2)on1 ; what IC50 value has been reported?
*A* > 3000 nM

*Q* // returns reported IC50 for input C[C@H](O)c1nccn1Cc1cc(-c2ccc(C#CC3(N)CCOCC3)cc2)on1
*A* > 3000 nM

*Q* Look at this molecule and give its reported IC50. C[C@H](O)c1nccn1Cc1cc(-c2ccc(C#C[C@@H]3[C@H]4CN(C(=O)CC(C)(C)N)C[C@@H]34)cc2)on1
*A* < 37 nM
